target of assay: human Y2 receptor (human) (UniProt P49146)
Sequence (P49146 whole entry): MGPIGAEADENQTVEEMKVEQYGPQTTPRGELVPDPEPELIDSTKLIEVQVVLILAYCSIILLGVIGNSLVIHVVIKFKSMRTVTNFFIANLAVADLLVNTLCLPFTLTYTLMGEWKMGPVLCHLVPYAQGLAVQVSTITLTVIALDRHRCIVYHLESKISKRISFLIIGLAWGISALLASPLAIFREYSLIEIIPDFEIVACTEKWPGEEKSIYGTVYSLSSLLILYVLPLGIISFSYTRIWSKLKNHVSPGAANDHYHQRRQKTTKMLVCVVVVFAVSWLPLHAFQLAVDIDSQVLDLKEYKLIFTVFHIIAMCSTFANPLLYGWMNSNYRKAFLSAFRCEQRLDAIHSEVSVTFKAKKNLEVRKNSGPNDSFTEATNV
test name: cell-based or functional assay
Non-standard residues stand in square brackets, D forms with d. No end group written: not given here. *: point of attachment. (carboxymethyl)carbamoyl = O=C(O)CNC(=O)*; Tetrahydropyran4carbonyl = O=C(C1CCOCC1)*; Imidazole4carbonyl = O=C(c1cnc[nH]1)*; Arg(Me) = CNC(=N)NCCC[C@H](N)C(=O)O; tBuAla = CC(C)(C)C[C@H](N)C(=O)O; 4Pal = N[C@@H](Cc1ccncc1)C(=O)O; Cha = N[C@@H](CC1CCCCC1)C(=O)O; Iva = CC[C@](C)(N)C(=O)O; Nle = CCCC[C@H](N)C(=O)O; Aib = CC(C)(N)C(=O)O; Ahx = NCCCCCC(=O)O
value type: GBA EC50 Ratio ([35S]GTPγS binding) (EC50 compound/EC50 PYY(3-36))

Ac-S[dP][Iva][4Pal][Cha][Aib]N[Arg(Me)][Aib]TRQR[Cha]-NH2 [Ac-[D-Pro24, Iva25, Pya(4)26, Cha27,36, Aib28,31, Arg(Me)30]-PYY(23-36)] :: 1.7
{(carboxymethyl)carbamoyl}-S[dP][Iva][4Pal][Cha][Aib]NK[Aib]TRQR[Cha]-NH2 (SMILES CC[C@](C)(NC(=O)[C@H]1CCCN1C(=O)[C@H](CO)NC(=O)NCC(=O)O)C(=O)N[C@@H](Cc1ccncc1)C(=O)N[C@@H](CC1CCCCC1)C(=O)NC(C)(C)C(=O)N[C@@H](CC(N)=O)C(=O)N[C@@H](CCCCN)C(=O)NC(C)(C)C(=O)N[C@H](C(=O)N[C@@H](CCCNC(=N)N)C(=O)N[C@@H](CCC(N)=O)C(=O)N[C@@H](CCCNC(=N)N)C(=O)N[C@@H](CC1CCCCC1)C(N)=O)[C@@H](C)O) [(Carboxymethyl)carbamoyl-[D-Pro24, Iva25, Pya(4)26, Cha27,36, Aib28,31, Lys30]-PYY(23-36)] :: 1.6
Ac-Q[dP]R[4Pal][Cha][Aib]NK[Aib]TRQR[Cha]-NH2 (SMILES CC(=O)N[C@@H](CCC(N)=O)C(=O)N1CCC[C@@H]1C(=O)N[C@@H](CCCNC(=N)N)C(=O)N[C@@H](Cc1ccncc1)C(=O)N[C@@H](CC1CCCCC1)C(=O)NC(C)(C)C(=O)N[C@@H](CC(N)=O)C(=O)N[C@@H](CCCCN)C(=O)NC(C)(C)C(=O)N[C@H](C(=O)N[C@@H](CCCNC(=N)N)C(=O)N[C@@H](CCC(N)=O)C(=O)N[C@@H](CCCNC(=N)N)C(=O)N[C@@H](CC1CCCCC1)C(N)=O)[C@@H](C)O) [Ac-[Gln23, D-Pro24, Pya(4)26, Cha27,36, Aib28,31, Lys30]-PYY(23-36)] :: 0.9
[Ahx][dP]R[4Pal][Cha][Aib]NK[Aib]TRQR[Cha]-NH2 (not fully specified (N-terminus); printed as Ac-Acp-D-Pro-Arg-Pya(4)-Cha-Aib-Asn-Lys-Aib-Thr-Arg-Gln-Arg-Cha-NH2) [[Acp23, D-Pro24, Pya(4)26, Cha27,36, Aib28,31, Lys30]-PYY(23-36)] :: 1.1
Ac-S[dP][Iva][4Pal][Cha][tBuAla]NK[Aib]TRQR[Cha]-NH2 (SMILES CC[C@](C)(NC(=O)[C@H]1CCCN1C(=O)[C@H](CO)NC(C)=O)C(=O)N[C@@H](Cc1ccncc1)C(=O)N[C@@H](CC1CCCCC1)C(=O)N[C@@H](CC(C)(C)C)C(=O)N[C@@H](CC(N)=O)C(=O)N[C@@H](CCCCN)C(=O)NC(C)(C)C(=O)N[C@H](C(=O)N[C@@H](CCCNC(=N)N)C(=O)N[C@@H](CCC(N)=O)C(=O)N[C@@H](CCCNC(=N)N)C(=O)N[C@@H](CC1CCCCC1)C(N)=O)[C@@H](C)O) [Ac-[D-Pro24, Iva25, Pya(4)26, Cha27,36, Leu(Me)28, Lys30, Aib31]-PYY(23-36)] :: 1.2
Tetrahydropyran4carbonyl-S[dP][Iva][4Pal][Cha][Aib]NK[Aib]TRQR[Cha]-NH2 (SMILES CC[C@](C)(NC(=O)[C@H]1CCCN1C(=O)[C@H](CO)NC(=O)C1CCOCC1)C(=O)N[C@@H](Cc1ccncc1)C(=O)N[C@@H](CC1CCCCC1)C(=O)NC(C)(C)C(=O)N[C@@H](CC(N)=O)C(=O)N[C@@H](CCCCN)C(=O)NC(C)(C)C(=O)N[C@H](C(=O)N[C@@H](CCCNC(=N)N)C(=O)N[C@@H](CCC(N)=O)C(=O)N[C@@H](CCCNC(=N)N)C(=O)N[C@@H](CC1CCCCC1)C(N)=O)[C@@H](C)O) [(Tetrahydro-2H-pyran-4-yl)carbonyl-[D-Pro24, Iva25, Pya(4)26, Cha27,36, Aib28,31, Lys30]-PYY(23-36)] :: 1.9
Ac-KS[dP]R[4Pal][Cha][Aib]NK[Aib]TRQR[Cha]-NH2 (SMILES CC(=O)N[C@@H](CCCCN)C(=O)N[C@@H](CO)C(=O)N1CCC[C@@H]1C(=O)N[C@@H](CCCNC(=N)N)C(=O)N[C@@H](Cc1ccncc1)C(=O)N[C@@H](CC1CCCCC1)C(=O)NC(C)(C)C(=O)N[C@@H](CC(N)=O)C(=O)N[C@@H](CCCCN)C(=O)NC(C)(C)C(=O)N[C@H](C(=O)N[C@@H](CCCNC(=N)N)C(=O)N[C@@H](CCC(N)=O)C(=O)N[C@@H](CCCNC(=N)N)C(=O)N[C@@H](CC1CCCCC1)C(N)=O)[C@@H](C)O) [Ac-[Lys22,30, D-Pro24, Pya(4)26, Cha27,36, Aib28,31]-PYY(22-36)] :: 1
Imidazole4carbonyl-S[dP][Nle][4Pal][Cha][Aib]NK[Aib]TRQR[Cha]-NH2 (SMILES CCCC[C@H](NC(=O)[C@H]1CCCN1C(=O)[C@H](CO)NC(=O)c1cnc[nH]1)C(=O)N[C@@H](Cc1ccncc1)C(=O)N[C@@H](CC1CCCCC1)C(=O)NC(C)(C)C(=O)N[C@@H](CC(N)=O)C(=O)N[C@@H](CCCCN)C(=O)NC(C)(C)C(=O)N[C@H](C(=O)N[C@@H](CCCNC(=N)N)C(=O)N[C@@H](CCC(N)=O)C(=O)N[C@@H](CCCNC(=N)N)C(=O)N[C@@H](CC1CCCCC1)C(N)=O)[C@@H](C)O) [4-Imidazolecarbonyl-[D-Pro24, Nle25, Pya(4)26, Cha27,36, Aib28,31, Lys30]-PYY(23-36)] :: 1.2
